Target: CD137 on primary human CD8+ T cells (human, UniProt Q07011 24-255)
Sequence (Q07011 24-255 limits assumed): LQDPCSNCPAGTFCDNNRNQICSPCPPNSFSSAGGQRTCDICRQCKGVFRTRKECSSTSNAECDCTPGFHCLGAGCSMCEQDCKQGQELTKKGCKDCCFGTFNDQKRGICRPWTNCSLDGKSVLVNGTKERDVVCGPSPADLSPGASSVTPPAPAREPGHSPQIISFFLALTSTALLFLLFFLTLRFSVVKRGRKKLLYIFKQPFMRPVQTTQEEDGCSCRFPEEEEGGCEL
Assay: cell-based or functional assay
assay_endpoint: Max IFN-γ (pg/mL)
Number only, in pg/mL; omit the unit.

Exam item: Param item = anti-CD137 antibody 1214/1215 (antibody, IgG1, V domains shown, Produced as IgG; also called 1214-bio) VH: EVQLLESGGGLVQPGGSLRLSCAASGFTFSSYAMSWVRQAPGKGLEWVSSIGSGGGYTGYADSVKGRFTISRDNSKNTLYLQMNSLRAEDTAVYYCARVGHPFDYWGQGTLVTVSS VL: DIQMTQSPSSLSASVGDRVTITCRASQSISSYLNWYQQKPGKAPKLLIYAASSLQSGVPSRFSGSGSGTDFTLTISSLQPEDFATYYCQQDAYPHTFGQGTKLEIK ; retrieve measured Max IFN-γ.
Marked response: 122000

Exam item: Need Max IFN-γ of anti-CD137 antibody 1204/1205 (antibody, IgG1, V domains shown, Produced as IgG; also called 1204-bio) VH: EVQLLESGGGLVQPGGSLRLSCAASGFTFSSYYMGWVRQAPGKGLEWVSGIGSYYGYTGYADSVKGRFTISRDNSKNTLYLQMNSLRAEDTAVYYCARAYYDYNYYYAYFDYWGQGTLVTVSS VL: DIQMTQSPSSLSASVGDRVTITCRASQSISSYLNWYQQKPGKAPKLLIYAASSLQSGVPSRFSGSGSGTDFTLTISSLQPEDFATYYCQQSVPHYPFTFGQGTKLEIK , thanks.
Marked response: 153000

Source: patent US20210238298A1
